- MEASUREMENT_NOTES: High-throughput (direct-to-biology) human liver microsomal stability assay
- EXPERIMENTAL_PARAMETERS: %remaining after LSS minus before LSS at 60 min, human liver microsomes
%Change After 60 min for assorted compounds
The response must be a number in % with no trailing unit.

Known results for compounds:
CCN(Cc1ccncc1)C(=O)C(CO)c1ccccc1 (centres unmarked) [Tropicamide] | -2.61
CC(C(=O)O)c1ccc(-c2ccccc2)c(F)c1 (centres unmarked) | 7.13
CN(Cc1ccc(C(C)(C)C)cc1)Cc1cccc2ccccc12 | -2.69

Could you tell me which %Change After 60 min is on file for O=C(C1CCCCC1)N1CC(=O)N2CCc3ccccc3C2C1 (centres unmarked) ?
-15.26

Same for Nc1c2ccccc2nc2ccccc12
-12.39

Subsequent entry: CCN(CC)C(=O)c1cccc(C)c1 [Diethyltoluamide]
0.82

How about COC(=O)N[C@H](C(=O)N[C@@H](Cc1ccccc1)[C@@H](O)CN(Cc1ccc(-c2ccccn2)cc1)NC(=O)[C@@H](NC(=O)OC)C(C)(C)C)C(C)(C)C ?
-5.37

Then this compound: COc1ccccc1N1CCN(CC(O)COc2cccc3ccccc23)CC1 (centres unmarked)
-25.63

Would you kindly repeat that for CC(C(=O)O)c1ccc(N2Cc3ccccc3C2=O)cc1 (centres unmarked) ?
-14.04

Follow-up item: CCOC(=O)[C@H](C)C[C@@H](Cc1ccc(-c2ccccc2)cc1)NC(=O)CCC(=O)O
-1.91

Next entry: CCCNC(C)C(=O)Nc1ccccc1C (centres unmarked)
-13.77

Next compound: COc1ccc2cc(CCC(C)=O)ccc2c1
5.23

Also, C[C@@H](NCCCc1cccc(C(F)(F)F)c1)c1cccc2ccccc12 please.
-1.7

// query: CCC1(c2ccccc2)C(=O)NCNC1=O
2.16
